- Tested on: Panc 05.04 cells (pancreatic cancer cells; Q699H and K700E mutations in SF3B1)
- Experiment Description: Cell viability assay (CellTiter-Glo, 72 hr), Panc 05.04 cells
- Assay type: cell-based
- Condition Context: Panc 05.04 cells (mutant SF3B1); read-out: Panc 05.04 (mt SF3B1 cells), GI50
Assay Metric: GI50 (µM)
Give just the number in µM; leave the unit off.

CC(=O)O[C@H]1/C=C/[C@H](C)[C@@H](/C(C)=C/C=C/C(C)(O)c2cccs2)OC(=O)C[C@H](O)CC[C@@]1(C)O (stereo partly drawn)	3.79
COCc1ccc(CCC(C)/C=C/C=C(\C)[C@H]2OC(=O)C[C@H](O)CC[C@@](C)(O)[C@@H](OC(C)=O)/C=C/[C@@H]2C)cc1 (stereo partly drawn)	0.321
C/C(=C\C=C/[C@@H](C)COC(=O)N1CC[C@@H](O)C1)[C@H]1OC(=O)C[C@H](O)CC[C@H](C)[C@@H](OC(=O)N2CCN(C)CC2)/C=C/[C@@H]1C	0.00667
COC(=O)OC[C@H](C)/C=C/C=C(\C)[C@H]1OC(=O)C[C@H](O)CC[C@@](C)(O)[C@@H](OC(=O)N2CCN(C)CC2)/C=C/[C@@H]1C	0.00511

input: Dear colleague, I am looking for the recorded GI50 of the following molecule: `C/C(=C\C=C\[C@@H](C)c1ccccn1)[C@H]1OC(=O)CCCCC[C@@H](OC(=O)N2CCN(C3CCCCCC3)CC2)/C=C/[C@@H]1C`
output: 0.883

input: Dear colleague, I am looking for the recorded GI50 of the following molecule: `C/C(=C\C=C\[C@@H](C)COC(=O)N1CCCC1)[C@H]1OC(=O)CCCC[C@@](C)(O)[C@@H](OC(=O)N2CCN(C)CC2)/C=C/[C@@H]1C`
output: 0.00238

input: Dear colleague, I am looking for the recorded GI50 of the following molecule: C/C(=C\C=C\C(C)c1ccnc(N(C)C)n1)[C@H]1OC(=O)C[C@H](O)CC[C@@](C)(O)[C@@H](OC(=O)N2CCN(C3CCCCCC3)CC2)/C=C/[C@@H]1C (stereo partly drawn)
output: 0.0983

Entry source: patent US11926619B2
